tested on: HepG2; experiment: Cytotoxicity against human HepG2 cells after 24 hrs by CellTiter assay; format: cell-based; details: HepG2, 24 h
Measured log10 IC50, listed per entry for reference.
Please keep in mind that the values are log10 of IC50 expressed in µM.

As a guide, the following entries are already answered.
IN: Report log10 IC50 for CCOP(=O)(OCC)Oc1ccc(Cl)cc1C(=O)Nc1cccc(Br)c1 please.
OUT: 0.26

IN: Report log10 IC50 for CCOP(=O)(OCC)Oc1cc(Cl)ccc1C(=O)Nc1ccc(C(F)(F)F)cc1 please.
OUT: 0.40

IN: Report log10 IC50 for CCOP(=O)(OCC)Oc1ccc(Br)cc1C(=O)Nc1ccc(F)cc1 please.
OUT: 0.87

IN: Report log10 IC50 for CCOP(=O)(OCC)Oc1ccc(Cl)cc1C(=O)Nc1ccc(F)cc1 please.
OUT: 1.50

IN: Report log10 IC50 for CCOP(=O)(OCC)Oc1cc(Cl)ccc1C(=O)Nc1cccc(Cl)c1 please.
OUT: 0.98

IN: Report log10 IC50 for CCOP(=O)(OCC)Oc1ccc(Br)cc1C(=O)Nc1ccc(Br)cc1 please.
OUT: 0.75

IN: Report log10 IC50 for CCOP(=O)(OCC)Oc1ccc(Br)cc1C(=O)Nc1cccc(C(F)(F)F)c1 please.
OUT: 0.26

IN: Report log10 IC50 for CCOP(=O)(OCC)Oc1ccc(Cl)cc1C(=O)Nc1ccc(Br)cc1 please.
OUT: 0.19

Further cases:
IN: Report log10 IC50 for CCOP(=O)(OCC)Oc1ccc(Br)cc1C(=O)Nc1cccc(Cl)c1 please.
OUT: 0.81

IN: Report log10 IC50 for CCOP(=O)(OCC)Oc1ccc(Cl)cc1C(=O)Nc1cccc(F)c1 please.
OUT: 1.24

IN: Report log10 IC50 for CCOP(=O)(OCC)Oc1cc(Cl)ccc1C(=O)Nc1ccc(F)cc1 please.
OUT: 1.53

###

Measured MIC95, listed per entry for reference.
tested on: Staphylococcus aureus; experiment: Antibacterial activity against methicillin-resistant Staphylococcus aureus H 5996/08 after 24 hrs by broth microdilution method; format: functional; details: H 5996/08, 24 h

IN: Report MIC95 for CCOP(=O)(OCC)Oc1ccc(Cl)cc1C(=O)Nc1cccc(C(F)(F)F)c1 please.
OUT: 500 µM

IN: Report MIC95 for CCOP(=O)(OCC)Oc1ccc(Br)cc1C(=O)Nc1cccc(F)c1 please.
OUT: 250 µM

IN: Report MIC95 for CCOP(=O)(OCC)Oc1ccc(Br)cc1C(=O)Nc1cccc(C(F)(F)F)c1 please.
OUT: 15.6 µM

Further cases:
IN: Report MIC95 for CCOP(=O)(OCC)Oc1cc(Cl)ccc1C(=O)Nc1ccc(Cl)c(Cl)c1 please.
OUT: 500 µM

IN: Report MIC95 for CCOP(=O)(OCC)Oc1cc(Cl)ccc1C(=O)Nc1cccc(C(F)(F)F)c1 please.
OUT: 31.2 µM

IN: Report MIC95 for CCOP(=O)(OCC)Oc1cc(Cl)ccc1C(=O)Nc1cccc(F)c1 please.
OUT: 250 µM

###

Measured MIC, listed per entry for reference.
system: Mycobacterium tuberculosis; assay: Antimycobacterial activity against Mycobacterium tuberculosis H37Rv My 331/88 after 21 days; format: functional; conditions: H37Rv My 331/88, 504 h
Entry rule: numbers only, all in µM.

As a guide, the following entries are already answered.
IN: Report MIC for CCOP(=O)(OCC)Oc1ccc(Cl)cc1C(=O)Nc1ccc(Br)cc1 please.
OUT: 2

IN: Report MIC for CCOP(=O)(OCC)Oc1ccc(Br)cc1C(=O)Nc1ccc(Cl)cc1 please.
OUT: 4

Further cases:
IN: Report MIC for CCOP(=O)(OCC)Oc1ccc(Cl)cc1C(=O)Nc1ccc(F)cc1 please.
OUT: 16

IN: Report MIC for CCOP(=O)(OCC)Oc1cc(Cl)ccc1C(=O)Nc1cccc(Cl)c1 please.
OUT: 8

###

tested on: Mycobacterium kansasii; experiment: Antimycobacterial activity against Mycobacterium kansasii My 235/80 after 7 days; assay type: functional; conditions: My 235/80, 168 h
Measured log10 MIC, listed per entry for reference.
Please keep in mind that the values are log10 of MIC expressed in µM.

As a guide, the following entries are already answered.
IN: Report log10 MIC for CCOP(=O)(OCC)Oc1ccc(Br)cc1C(=O)Nc1cccc(Br)c1 please.
OUT: 0.60

IN: Report log10 MIC for CCOP(=O)(OCC)Oc1ccc(Cl)cc1C(=O)Nc1ccc(Br)cc1 please.
OUT: 0.60

IN: Report log10 MIC for CCOP(=O)(OCC)Oc1cc(Cl)ccc1C(=O)Nc1ccc(Cl)cc1 please.
OUT: 0.60

IN: Report log10 MIC for CCOP(=O)(OCC)Oc1cc(Cl)ccc1C(=O)Nc1cccc(Br)c1 please.
OUT: 0.60

Further cases:
IN: Report log10 MIC for CCOP(=O)(OCC)Oc1cc(Cl)ccc1C(=O)Nc1cccc(Cl)c1 please.
OUT: 0.60

IN: Report log10 MIC for CCOP(=O)(OCC)Oc1ccc(Br)cc1C(=O)Nc1cccc(Cl)c1 please.
OUT: 0.60

IN: Report log10 MIC for CCOP(=O)(OCC)Oc1ccc(Cl)cc1C(=O)Nc1cccc(F)c1 please.
OUT: 1.20

IN: Report log10 MIC for CCOP(=O)(OCC)Oc1cc(Cl)ccc1C(=O)Nc1ccc(Cl)c(Cl)c1 please.
OUT: 0.30

###

tested on: Mycobacterium avium; assay: Antimycobacterial activity against isoniazid, rifampicin, ethambutol and ofloxacin-resistant Mycobacterium avium My 330/88 after 21 days; assay type: functional; details: My 330/88, 504 h
experimentalReadout: MIC (µM)
Entry rule: numbers only, all in µM.

As a guide, the following entries are already answered.
IN: Report MIC for CCOP(=O)(OCC)Oc1ccc(Cl)cc1C(=O)Nc1ccc(C(F)(F)F)cc1 please.
OUT: 4

IN: Report MIC for CCOP(=O)(OCC)Oc1cc(Cl)ccc1C(=O)Nc1cccc(F)c1 please.
OUT: 16

IN: Report MIC for CCOP(=O)(OCC)Oc1ccc(Cl)cc1C(=O)Nc1cccc(C(F)(F)F)c1 please.
OUT: 16

IN: Report MIC for CCOP(=O)(OCC)Oc1ccc(Cl)cc1C(=O)Nc1cccc(Cl)c1 please.
OUT: 16

IN: Report MIC for CCOP(=O)(OCC)Oc1ccc(Cl)cc1C(=O)Nc1cccc(Br)c1 please.
OUT: 16

IN: Report MIC for CCOP(=O)(OCC)Oc1cc(Cl)ccc1C(=O)Nc1cccc(Br)c1 please.
OUT: 16

IN: Report MIC for CCOP(=O)(OCC)Oc1ccc(Br)cc1C(=O)Nc1cccc(Br)c1 please.
OUT: 16

IN: Report MIC for CCOP(=O)(OCC)Oc1ccc(Br)cc1C(=O)Nc1cccc(Cl)c1 please.
OUT: 16

IN: Report MIC for CCOP(=O)(OCC)Oc1ccc(Br)cc1C(=O)Nc1cccc(C(F)(F)F)c1 please.
OUT: 16

IN: Report MIC for CCOP(=O)(OCC)Oc1ccc(Cl)cc1C(=O)Nc1ccc(Cl)c(Cl)c1 please.
OUT: 16

Further cases:
IN: Report MIC for CCOP(=O)(OCC)Oc1ccc(Br)cc1C(=O)Nc1ccc(C(F)(F)F)cc1 please.
OUT: 8

IN: Report MIC for CCOP(=O)(OCC)Oc1cc(Cl)ccc1C(=O)Nc1ccc(F)cc1 please.
OUT: 32

IN: Report MIC for CCOP(=O)(OCC)Oc1cc(Cl)ccc1C(=O)Nc1ccc(C(F)(F)F)cc1 please.
OUT: 4

IN: Report MIC for CCOP(=O)(OCC)Oc1cc(Cl)ccc1C(=O)Nc1cccc(Cl)c1 please.
OUT: 16

IN: Report MIC for CCOP(=O)(OCC)Oc1ccc(Cl)cc1C(=O)Nc1ccc(Br)cc1 please.
OUT: 8

IN: Report MIC for CCOP(=O)(OCC)Oc1cc(Cl)ccc1C(=O)Nc1ccc(Cl)c(Cl)c1 please.
OUT: 16

IN: Report MIC for CCOP(=O)(OCC)Oc1ccc(Br)cc1C(=O)Nc1cccc(F)c1 please.
OUT: 32

IN: Report MIC for Nc1ccc(C(=O)O)c(O)c1 please.
OUT: 125

IN: Report MIC for CCOP(=O)(OCC)Oc1ccc(Cl)cc1C(=O)Nc1ccc(Cl)cc1 please.
OUT: 8

IN: Report MIC for CCOP(=O)(OCC)Oc1ccc(Br)cc1C(=O)Nc1ccc(Cl)c(Cl)c1 please.
OUT: 16

IN: Report MIC for CCOP(=O)(OCC)Oc1cc(Cl)ccc1C(=O)Nc1cccc(C(F)(F)F)c1 please.
OUT: 16

IN: Report MIC for CCOP(=O)(OCC)Oc1ccc(Cl)cc1C(=O)Nc1ccc(F)cc1 please.
OUT: 62.5

###

system: HepG2; experiment: Cytotoxicity against human HepG2 cells after 24 hrs by CellTiter assay; type: cell-based; conditions: HepG2, 24 h
Measured IC50, listed per entry for reference.

As a guide, the following entries are already answered.
IN: Report IC50 for CCOP(=O)(OCC)Oc1ccc(Br)cc1C(=O)Nc1ccc(Cl)cc1 please.
OUT: 6810 nM

IN: Report IC50 for CCOP(=O)(OCC)Oc1ccc(Cl)cc1C(=O)Nc1ccc(Cl)c(Cl)c1 please.
OUT: 2840 nM

IN: Report IC50 for CCOP(=O)(OCC)Oc1cc(Cl)ccc1C(=O)Nc1ccc(Cl)c(Cl)c1 please.
OUT: 1920 nM

IN: Report IC50 for CCOP(=O)(OCC)Oc1cc(Cl)ccc1C(=O)Nc1cccc(C(F)(F)F)c1 please.
OUT: 3850 nM

API: the following record is the query input.
IN: Report IC50 for CCOP(=O)(OCC)Oc1ccc(Br)cc1C(=O)Nc1ccc(C(F)(F)F)cc1 please.
OUT: 1840 nM
